Catalogue of compounds with associated melting point

Guide cases for melting point, answers given:
compound | endpoint-value
Cc1cc(Oc2ccc(NC(=O)Nc3ccc(N(CCCl)CCCl)cc3)cc2)c2cc3c(cc2n1)OCO3 | 217 to 218 °C
COc1ccc(Cc2nnc(-c3ccc4occc4c3)o2)cc1 | 108 to 109 °C
CC(C)=NN=C(c1ccc(Cl)cc1)c1ccc(OS(C)(=O)=O)cc1 | 148 to 149 °C
CC(=O)C(Cl)=NNc1ccccc1S(C)(=O)=O | 253 to 255 °C
CC(C)c1cccc(CC(=O)O)c1OCCCc1cn(-c2ccc(C(F)(F)F)cn2)nc1C(C)C | 108 to 109 °C

Requested read-out: melting point. Entry: COC(=O)c1ccc(OCC(O)CNC(C)(C)C)cc1 (centres undefined)
88 to 89 °C

What do we get for CCc1c(OCc2ccccc2)nc(OCc2ccccc2)nc1C(C#N)c1cc(C)cc(C#N)c1 (centres undefined) ?
139 to 141 °C

What do we get for COC(=O)CCCOc1ccc2ccc(O)cc2c1 ?
122 to 125 °C

What do we get for COc1ccc(C(=O)c2cc(C(C)(C)C)c(O)c(C(C)(C)C)c2)cc1 ?
141 to 142 °C

What do we get for COC(=O)[C@H]1C[C@H](NS(C)(=O)=O)c2c(Cl)cc(Cl)cc2N1 (relative stereo) ?
143 to 146 °C
